Values were extracted from the supplement of paper PMC8728848.

target: Neu5Ac(a2-3)Gal(b1-4)[Fuc(a1-3)]GlcNAc; assay: glycan array binding signal (z-score within array); higher = stronger binding; settings: glycan notation: IUPAC condensed, linker removed
The full list was thinned out, with the strongest signals kept by preference.
observation-type: glycan array binding signal (z-score)
Write no unit; give the number alone.

{"binder": "GH98CBM51-1 (Streptococcus pneumoniae) (protein) MTYLSDMDWSSATHGDIDKTKTVQKDAPFTTGNKGEHTKISLLTSDDKVKYFDKGIGTVADSPSVISYDISGQGFEKFETYIGIDQSANSSRSDHAVVDRIEIEIDGKVVYSSSVTNPEGFRYNTQAQFISVTIPQNAKKISLKSFAGEHTWGDEVVFADAKLIKTVST", "glycan array binding signal (z-score)": -0.191}
{"binder": "StdA (Salmonella typhimurium), Q8Z3Z0 (protein) MAAAGMMYGASVFAADTTPTAGPFGSGKILFTGTITNSPCDIAPGDDAITVPFGQISYRKLNTANATTDSKPFTIHLQNCAFDPNETTIAGSAGKMSKVTVSFSGTADTSGKAYVSTGSAQHVGVQLLKGDNTSLITPNTPMPDGDAQQLQAGNNELNFFARLIALTDAATPGDVNASVTYTLKYL", "glycan array binding signal (z-score)": -0.614}
{"binder": "LlpA (Burkholderia cenocepacia) (protein) MGSSHHHHHHSSGLVPRGSHKILGSNETLSAGNVVYSDNGQYHLAMQTDGNLVVYGPTGAVWQSQTSGSGGNRAVMQGDGNLVIYRADNTAAWSSKTAHPGAFLAVQDDGNVVIYWPRPAWASNTSDPATQQSAESKYLASGSTMSAGQTVTVAQYMLVFQADGNLVLYKNGGNPIWSTGTQGKGATYAVMQSDGNFVIYAGSTALWSTKTNGANGAQLVLQSDGNLVIYAPTAAWSTKFGLVTAPTSTSTSNNGPGSGICVGVCPPHPLNGNPFSPVGVGTTGLGFPTPGYPGAAF", "glycan array binding signal (z-score)": -0.785}

What does the record list as glycan array binding signal (z-score) for Pwp3 (Candida glabrata) (protein) MGSSHHHHHHSSGLVPRGSHMASKNPVDFTTVCQFPDNFSKKPGFLATTARLGLWITGNSYKELLNYPGTFTLTTQQASTTTPNIQLRGTDLFTTIYGLTVYPLYLLVELQGYFVPTQSGMYTFSLTGSDDAAIIFIGNPSTFPCDAFKTWPQATANDITVTDSINPSRTLYMVKGVAYPLRIAYYNGLGNGVLNAAFTDPSGTKRTDWNGYIWQYDQCSTCTYK ?
0.139

Item under review: Pwp5 ND (Candida glabrata) (protein) MGSSHHHHHHSSGLVPRGSHMASANPVPLTNVCYFPEEYPRQAGFRAITAGLASTILQGSVDELLNYSGLSSLTTQQTTTTTPNFQLPTLPLPTNVYGLTVVPLYLLVQLQGYFVPPVSGQYTFSLENTNDAAIIFFGNPSAFPCGDLSAWPQASADDITVTDGTFPSRTLFLKAGVAYPMRISYYNSLGSGNLAVSFTDPGGTKRTNWNGYIWRYNSCSTCTYT . Reported glycan array binding signal (z-score)?
-0.271

Give its glycan array binding signal (z-score) value. Item: F4 (Escherichia coli), A0A6L9DDF0 (protein) MKKTLIALALAASAVSGMAHAWTSGDFNGTVDIGGSIDATNYRQKWEWEVGTGLNGFYNALSELTNNDTKLTITVTGNKPILLGRTKEAFVTPTAGGWGGIPQIAFTDYKGAPVELKNPDGETNKGLAYFVLPMKNADGTEAGSVRVNASYAGAVVEKTSDSSAKLFSAYAGEVIRIFNGGLPVNVTQSELQSGVAAADRTALFGSLGKADLVAQFQAVIPGATVTDGTSSEHCTMRLLASAAYALGIADGQTIEATFNQAVTTSTQWSAPLNVAITYY
2.09
